Would you mind telling me the reported Survival rate of each entry?
test system: Huh-7; experiment: Extended test against tumor cell lines (ATPlite); format: cell-based; details: Huh-7 (liver cancer), 0.063 μM, 72 hours
Field: numeric (%). Do not append units.

Name the reported Survival rate value associated with the compound `CSc1nccc(N2CCC(N(C)Cc3c(Cl)cccc3Cl)CC2)n1`
82

I would be grateful if you could share the reported Survival rate for `CSc1nccc(N2CCC(N(C)Cc3ccccc3Cl)CC2)n1` .
88.3

Find the recorded Survival rate belonging to `CSc1nccc(N2CCC(N(C)Cc3ccc(Cl)cc3Cl)CC2)n1` and report it.
90.7

Item `CSc1nccc(N2CCC(N(C)Cc3ccc(C#N)cc3)CC2)n1` has what recorded Survival rate?
88.2

Endpoint output: Survival rate of `CSc1nccc(N2CCC(N(C)Cc3c(F)cccc3Cl)CC2)n1` . Value?
86.7

----------
test: Mice pharmacokinetic evaluation (LC-MS/MS of plasma); assay type: in vivo, ICR mice; settings: male, ICR, mouse, plasma, iv, 1 mg/kg, intravenous 1.0 mg/kg, 4.0 h, individual mice 4-6; read-out: Plasma concentration of active compound
EXPERIMENTAL_ENDPOINT: concentration at 4 h (ng/mL)
Quick note: give the figure in ng/mL, leave out the unit.

Report concentration at 4 h for CSc1nccc(N2CCC(N(C)Cc3ccc(C#N)cc3)CC2)n1 [Example 36] please.
2.3

----------
assay: Mice pharmacokinetic evaluation (LC-MS/MS of plasma); assay type: in vivo, ICR mice; conditions: male, ICR, mouse, plasma, po, 10 mg/kg, Po 10 mg/kg, Mean ± SD, n = 3
EXPERIMENTAL_ENDPOINT: AUC(0-t)

Param item = CSc1nccc(N2CCC(N(C)Cc3ccc(C#N)cc3)CC2)n1 [Example 36] ; retrieve measured AUC(0-t).
275 ng·h/mL

----------
test: Mice pharmacokinetic evaluation (LC-MS/MS of plasma); format: in vivo, ICR mice; conditions: male, ICR, mouse, plasma, po, 10 mg/kg, Po 10 mg/kg, Mean ± SD, n = 3; read-out: Tmax
EXPERIMENTAL_ENDPOINT: Tmax (min)
Answer format: numeric, min implied, no suffix.

Fill in: Tmax of `CSc1nccc(N2CCC(N(C)Cc3ccc(C#N)cc3)CC2)n1` is ___
26.4

----------
System: BT474
Experiment: Antitumor bioactivity evaluation, breast cancer cells (ATPlite)
Assay type: cell-based
Details: Homo sapiens, BT-474; test sample 5 μM, 72 hours; read-out: Inhibitory Rate % BT474
Protocol: Antitumor bioactivity evaluation of the compounds of Examples according to the method described below […] Test after incubation at 37° C. for 72 hours: 50 μL of ATPlite kit substrate solution was added in each well, and vibrated for 3 min, followed by placing aside in darkness for 10 min, and then supernatant 100 μl/well was taken and placed on aluminescence test plate; the luminescence test plate that has been fully incubated was placed in a luminescence test instrument, to read luminescence value. […]
EXPERIMENTAL_ENDPOINT: inhibition at 5 µM (%)
Give just the numeric value; % need not be written.

Could you share which inhibition at 5 µM value was measured for COc1nccc(N2CCC(N(C)Cc3c(F)cccc3Cl)CC2)n1 [Example 54] ?
65.4

// returns reported inhibition at 5 µM for input CN(Cc1cccc(F)c1)C1CCN(Cc2cnc(Cl)s2)CC1 [Example 23]
2.4

Item CSc1nccc(N2CCC(N(C)Cc3ccc(C)cc3)CC2)n1 [Example 42] has what recorded inhibition at 5 µM?
36.7

What does the record list as inhibition at 5 µM for CCOc1ncc(CN2CCC(N(C)Cc3c(Cl)cccc3Cl)CC2)s1 [Example 9] ?
38.2

For the compound CSc1nccc(N2CCC(N(C)Cc3c(Cl)cccc3Cl)CC2)n1 [Example 49] , what inhibition at 5 µM is on record?
61.5

What measured inhibition at 5 µM goes with CSc1ncc(CN2CCC(N(C)Cc3ccc(Cl)c(Cl)c3)CC2)s1 [Example 30] ?
62.6

Suppose we examine the compound COc1cc(N2CCC(N(C)Cc3cccc(Cl)c3)CC2)ncn1 [Example 63] ; what inhibition at 5 µM value has been reported?
11.9

Given CSc1ncc(CN2CCC(N(C)Cc3ccc(Cl)cc3Cl)CC2)s1 [Example 33] , state its recorded inhibition at 5 µM.
70

Please report the recorded inhibition at 5 µM for CSc1ncc(CN2CCC(N(C)Cc3ccccc3C)CC2)s1 [Example 25] .
15.5

Which inhibition at 5 µM is reported for this compound? COc1nccc(N2CCC(N(C)Cc3ccc(Cl)c(Cl)c3)CC2)n1 [Example 53]
52.9

Look up inhibition at 5 µM: CSc1ncc(CN2CCC(N(C)Cc3c(F)cccc3Cl)CC2)s1 [Example 31]
49.5

I am curious: what inhibition at 5 µM value has been reported for Clc1ncc(CN2CCC(NCc3ccc(Cl)c(Cl)c3)CC2)s1 [Example 11] ?
11

Suppose we examine the compound CCOc1ncc(CN2CCC(N(C)Cc3ccc(Cl)cc3Cl)CC2)s1 [Example 8] ; what inhibition at 5 µM value has been reported?
70.3

Given the entry CCOc1ncc(CN2CCC(N(C)Cc3ccc(C#N)cc3)CC2)s1 [Example 4] , report its measured inhibition at 5 µM.
61.7

Please give the measured inhibition at 5 µM for this compound: COc1cc(N2CCC(N(C)Cc3c(Cl)cccc3Cl)CC2)ncn1 [Example 60]
53.6

Reported inhibition at 5 µM, compound CN(Cc1c(Cl)cccc1Cl)C1CCN(Cc2cnc(Cl)s2)CC1 [Example 24] : ____
11.1

Query: inhibition at 5 µM; subject: COc1cc(N2CCC(N(C)Cc3ccccc3C#N)CC2)ncn1 [Example 65]
65.8

What does the record list as inhibition at 5 µM for CSc1ncc(CN2CCC(N(C)Cc3cccc(Cl)c3)CC2)s1 [Example 28] ?
44.9

inhibition at 5 µM lookup needed for CCOc1ncc(CN2CCC(N(C)Cc3cc(Cl)ccc3Cl)CC2)s1 [Example 10] , thanks.
5.6

For the compound COc1nccc(N2CCC(N(C)Cc3ccccc3Cl)CC2)n1 [Example 43] , what inhibition at 5 µM is on record?
61

If you can, please state the reported inhibition at 5 µM value of COc1nccc(N2CCC(N(C)Cc3ccc(C#N)cc3)CC2)n1 [Example 48] .
71.6

Which inhibition at 5 µM value is on record for COc1cc(N2CCC(N(C)Cc3cccc(F)c3)CC2)ncn1 [Example 68] ?
5.4

Value lookup for inhibition at 5 µM; key = CN(Cc1ccccc1C#N)C1CCN(Cc2cnc(Cl)s2)CC1 [Example 14]
-4.1

Using the record for CSc1nccc(N2CCC(N(C)Cc3cccc(F)c3)CC2)n1 [Example 45] , report its inhibition at 5 µM.
21.3

Consider the compound shown here: CSc1nccc(N2CCC(N(C)Cc3ccc(C#N)cc3)CC2)n1 [Example 36] What is its recorded inhibition at 5 µM?
75.5

Query: inhibition at 5 µM; subject: CN(Cc1cccc(Cl)c1)C1CCN(Cc2cnc(Cl)s2)CC1 [Example 18]
7.1

# inhibition at 5 µM lookup, item Clc1cccc(CNC2CCN(Cc3cnc(Cl)s3)CC2)c1 [Example 13]
3.8

# get_value(readout='inhibition at 5 µM', item= CSc1nccc(N2CCC(N(C)Cc3ccc(Cl)cc3Cl)CC2)n1 [Example 40] )
74.2

# query: inhibition at 5 µM of entry CSc1ncc(CN2CCC(N(C)Cc3cccc(F)c3)CC2)s1 [Example 27]
26.3

Which inhibition at 5 µM is reported for this compound? CSc1nccc(N2CCC(N(C)Cc3ccccc3C#N)CC2)n1 [Example 41]
69.2

Quick one: inhibition at 5 µM of CCOc1ncc(CN2CCC(N(C)Cc3cccc(Cl)c3)CC2)s1 [Example 1] ?
14.4

Reported inhibition at 5 µM for CSc1nccc(N2CCC(N(C)Cc3ccc(Cl)c(Cl)c3)CC2)n1 [Example 38] : what is it?
39.5

Could you share which inhibition at 5 µM value was measured for COc1nccc(N2CCC(N(C)Cc3ccccc3C#N)CC2)n1 [Example 50] ?
27.5

Give its inhibition at 5 µM value. Item: COc1cc(N2CCC(N(C)Cc3ccc(C)cc3)CC2)ncn1 [Example 59]
5

Returns the measured inhibition at 5 µM for the input compound. Input: CCOc1ncc(CN2CCC(N(C)Cc3ccc(Cl)c(Cl)c3)CC2)s1 [Example 3]
62.9

If you can, please state the reported inhibition at 5 µM value of CSc1nccc(N2CCC(N(C)Cc3cc(Cl)ccc3Cl)CC2)n1 [Example 44] .
67.1

Values from patent US10023565B2
